# Species on record: Rattus norvegicus
# Experimental Details: Open TG-GATES - Regimen: Daily Repeat
# Type: toxicity, organism-based, Sprague-Dawley
# Set-up: regimen Daily Repeat, gender Male, age 6 weeks
# Setup Conditions: in vivo, po, 0 mg/kg, […], tissue Plasma, route gavage, dose level Control, time 28 day
Please note: LDH exactly at 100 IU/L is not fulfilled. Only values below 100 IU/L get fulfilled.

# input # TODO verify LDH < 100 IU/L strictly for this molecule: C=CCO [ALLYL ALCOHOL]
# output not fulfilled

# input Criterion: LDH strictly below 100 IU/L. Is it met by O=C1NC(=O)C(c2ccccc2)(c2ccccc2)N1 [PHENYTOIN] ?
# output not fulfilled

# input Identify whether the molecule Cn1c(=O)c2c(ncn2C)n(C)c1=O [CAFFEINE] records LDH below 100 IU/L.
# output not fulfilled
